tested on: HaCaT immortalized keratinocytes; test: MTS assay of metabolic activity (cell viability), 48 h exposure, HaCaT cells; type: cell-based; conditions: Homo sapiens, ± SEM, DTIC applied up to 1000 µM, italic values extrapolated
readout_name: pIC50
# reply with the number alone; pIC50 is -log10 of concentration in mol/L

C/C=C(/C=O)[C@@H](CC=O)CC(=O)OCCc1ccc(O)cc1: 3.88

Value of measured pIC50 for the entry CC=C(C=O)C(CC=O)CC(=O)OCCc1ccc(O)c(O)c1 (stereo not drawn) : 3.94

Taken from paper PMC9146374.
